Tested on: COLO 205
Experiment: Cytotoxicity against human COLO205 cells assessed as cell growth at 10 uM after 48 hrs by SRB assay relative to control
Assay type: functional
Conditions: COLO 205, 48 h, read-out: Activity
REPORTED METRIC: growth at 10 µM (%)
Please reply with the bare figure in % and do not write the unit itself.

Q: What value of growth at 10 µM has been reported for the following molecule? COc1ccc(CCNCc2c(C)ccc([C@@H](C)CCC=C(C)C)c2O)cc1OC
Ans: 67.9

Q: Entry to check: CC(C)=CCC[C@H](C)c1ccc(C)cc1O
Ans: 117

Q: Entry to check: CC(C)=CCC[C@H](C)c1ccc(C)c(CNCCCCC(=O)O)c1O
Ans: 119

Q: Entry to check: CC(C)=CCC[C@H](C)c1ccc(C)c(CO)c1O
Ans: 125

Q: Entry to check: CC(C)=CCC[C@H](C)c1ccc(C)c2c1OCN(CCCCC(=O)O)C2
Ans: 110

Q: Entry to check: COc1ccc(CCN2COc3c([C@@H](C)CCC=C(C)C)ccc(C)c3C2)cc1OC
Ans: -99

Q: Entry to check: CC(C)=CCC[C@H](C)c1ccc(C)c(CNCCCCCO)c1O
Ans: 105

Q: Entry to check: CC(C)=CCC[C@H](C)c1ccc(C)c(CNCCO)c1O
Ans: 105

Q: Entry to check: CC(C)=CCC[C@H](C)c1ccc(C)c2c1OCN(CCO)C2
Ans: 119

Q: Entry to check: CC(C)=CCC[C@H](C)c1ccc(C)c(CNCC2CCNCC2)c1O
Ans: -59

Q: Entry to check: CC(C)=CCC[C@H](C)c1ccc(C)c2c1OCN(CCCCCO)C2
Ans: 90

Q: Entry to check: CC(C)=CCC[C@H](C)c1ccc(C)c2c1OCN(CC1CCNCC1)C2
Ans: 75.9

====

Tested on: MDA-MB-231
Assay: Cytotoxicity against human MDA-MB-231 cells assessed as growth inhibition after 24 hrs by MTT assay
Type: cell-based
Settings: MDA-MB-231, 24 h
REPORTED METRIC: IC50

Q: What value of IC50 has been reported for the following compound? COc1ccc(CCNCc2c(C)ccc([C@@H](C)CCC=C(C)C)c2O)cc1OC
Ans: > 20 µM

Q: Entry to check: CC(C)=CCC[C@H](C)c1ccc(C)c(CNCCO)c1O
Ans: > 20 µM

Q: Entry to check: CC(C)=CCC[C@H](C)c1ccc(C)c(CNCCCCC(=O)O)c1O
Ans: > 20 µM

====

I'd be grateful if you could share measured growth at 10 µM for these entries.
System: HOP-62
Assay: Cytotoxicity against human HOP62 cells assessed as cell growth at 10 uM after 48 hrs by SRB assay relative to control
Type: functional
Details: HOP-62, 48 h, read-out: Activity
Please reply with the bare figure in % and do not write the unit itself.

Q: What value of growth at 10 µM has been reported for the following molecule? CC(C)=CCC[C@H](C)c1ccc(C)c(CNCCCCCO)c1O
Ans: 88.4

Q: Entry to check: CC(C)=CCC[C@H](C)c1ccc(C)c2c1OCN(CCO)C2
Ans: 80.4

Q: Entry to check: CC(C)=CCC[C@H](C)c1ccc(C)c(CNCC2CCNCC2)c1O
Ans: 84

Q: Entry to check: CC(C)=CCC[C@H](C)c1ccc(C)c2c1OCN(CC1CCNCC1)C2
Ans: 80

Q: Entry to check: CC(C)=CCC[C@H](C)c1ccc(C)c2c1OCN(CCCCC(=O)O)C2
Ans: 94.6

Q: Entry to check: CC(C)=CCC[C@H](C)c1ccc(C)c2c1OCN(CCCCCO)C2
Ans: 92.5
